# system-name: Claudin18.2-His protein (human)
# assay-comment: indirect ELISA on coated Claudin18.2-His
Measured EC50, listed per entry.

Please review the entries below; each comes with its answer.
| binder | quantity-kind | observed-result |
| --- | --- | --- |
| 231H4G11 (antibody, V domains shown) VH: QAYLQQSGAELVRSGASVKMSCKASGYTFTSHNIHWVKQTPGQGLEWIGYISPGNGYTNYNQKFRGKATLTADTSSSTAYMQISSLTSEDSAVYFCTRDYYGNSFAYWGQGTLVTVSA VL: DIVMTQSPSSLTEKAGERVSMSCKSSQSLFNSGSQKNYLTWYQQKPGQPPKLLIYWASTRESGVPDRFSGSGSGTDFTLTISSVQAEDLAVYYCQNNYWFPFTFGAGTKLELK | EC50 | 0.0394 µg/mL |
| 392A11C8 (antibody, V domains shown) VH: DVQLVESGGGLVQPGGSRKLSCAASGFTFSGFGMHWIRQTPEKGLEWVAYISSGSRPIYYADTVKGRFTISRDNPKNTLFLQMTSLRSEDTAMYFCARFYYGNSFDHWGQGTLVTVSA VL: DIVMTQSPSFLTVTAGEKVTMSCRSSQSLLNSGNQKNYLTWYQQKPGQPPKLLIYWASTRESGVPDRFTGSGSGTDFTLTISSVQAEDLALYYCQNAYSFPLTFGAGTKLELK | EC50 | 0.021 µg/mL |

From here, focus on the item given below.
QUERY: What EC50 value was documented for this binder, 243F6D2 (antibody, V domains shown) VH: QAYLQQSGAELVRSGASVKMSCRASGYTFTSHNMHWVKQTPGQGLEWIGYIYPGNGGTYYNQKFKGKATLTADTSSSTAYMQISSLTSEDSAVYFCARDYYGNSFVYWGQGTLVTVSA VL: DVVMTQSPSSLTEKTGEKVSMSCKSSQSLLNSGNQKNYLTWYQQKPGQPPKLLIYWASTRESGVPDRFTGSGSGTDFTLTISSLQTEDLAVYYCQNNYRYPFTFGAGTKLELK ?
RESULT: 0.0346 µg/mL
